# tested-target: PTGER2 (EP2) (Homo sapiens (Human), UniProt P43116)
# Sequence (P43116 whole entry): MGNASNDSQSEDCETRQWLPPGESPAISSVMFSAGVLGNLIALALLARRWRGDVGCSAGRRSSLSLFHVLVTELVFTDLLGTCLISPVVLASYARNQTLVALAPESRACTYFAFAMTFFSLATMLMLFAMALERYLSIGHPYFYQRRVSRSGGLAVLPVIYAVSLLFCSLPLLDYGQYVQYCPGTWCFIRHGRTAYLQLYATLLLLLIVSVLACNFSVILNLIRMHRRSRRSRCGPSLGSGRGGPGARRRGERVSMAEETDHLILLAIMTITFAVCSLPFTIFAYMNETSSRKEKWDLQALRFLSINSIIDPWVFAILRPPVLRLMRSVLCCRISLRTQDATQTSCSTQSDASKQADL
# assay-comment: hEP2 b-arrestin assay (PathHunter HEK 293 PTGER2 b-arrestin cells)
# Assay type: cell-based
# assay-context: antagonistic activity on hEP2; mean where measured multiple times
I'd be grateful if you could share measured pIC50 for these entries.
One number for each entry, as −log10 of the molar value.

sample-smiles	reported-value
CCOc1cc(-c2cc(NCCn3c(C)cc4c(C)c(F)cc(Cl)c43)ncn2)ccc1C(=O)O	7.47
Cc1cc2cc(F)cc(F)c2n1CCNc1cc(-c2ccc(C(=O)O)c(CC(C)C)c2)ncn1	7.82
CCCc1cc(-c2cc(NCCn3c(C)cc4c(OC)ccc(F)c43)ncn2)ccc1C(=O)O	8.30

Attention now turns to another entry.
According to the records, this compound Cc1ccc(F)c2c1cc(C)n2CCNc1cc(-c2ccc3nccnc3c2)ncn1 displays pIC50 of 7.20

Provenance of the data: patent US12011444B2
